Value source: patent US20250361305A1

- assayTarget: T1, recombinant extracellular domain of PD-L1 with C-terminal FLAG-tag (human, UniProt Q9NZQ7 19-238)
- T1 construct: extracellular domain; The sentence itself names no species; Immobilised through the M2 anti-FLAG antibody; not shown: C-terminal FLAG-tag
- T1 sequence (Q9NZQ7 19-238): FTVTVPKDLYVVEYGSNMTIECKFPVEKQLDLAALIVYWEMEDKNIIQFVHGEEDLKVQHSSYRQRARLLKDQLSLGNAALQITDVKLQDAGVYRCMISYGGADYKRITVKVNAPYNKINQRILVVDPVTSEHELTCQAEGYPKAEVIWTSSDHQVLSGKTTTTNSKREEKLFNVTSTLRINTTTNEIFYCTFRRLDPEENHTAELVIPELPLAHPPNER
- testSummary: plate binding assay, VHH against hPD-1-hFc binding to immobilised PD-L1 ECD-FLAG
parameter: IC50 (ng/mL)

{"binder": "3LIG8 VHH-(His)6 (pHEN6C-PelB-PD-L1 VHH-(His)6) (VHH) VHH: QVQLQESGGGLVQPGGSLRLSCTASGTIFSINRMDWFRQAPGKQRELVALITSDGTPTYADSAKGRFTISRDNTKKTVSLQMNSLKPEDTAVYYCHVSSGVYNYWGQGTQVTVSS", "parameter": "IC50", "number": 12.8}
{"binder": "2LIG99 VHH-(His)6 (pHEN6C-PelB-PD-L1 VHH-(His)6) (VHH) VHH: QVQLQESGGGLVQAGGSLRLSCTASGTIFSINRMDWFRQAPGKQRELVALITSDGTPAYADSAKGRFTISRDNTKKTVSLQMNSLKPEDTAVYYCHVSSGVYNYWGQGTQVTVSS", "parameter": "IC50", "number": 6.21}
